biological target: recombinant thioesterase TE2 (recombinant FASN-TE) (Homo sapiens, UniProt P49327); experiment: Recombinant thioesterase inhibition assay (TE2); format: biochemical; details: 10 μM compound; 30 min pre-incubation at 37° C.; 4-MUH substrate
Sequence (P49327 2200-2511): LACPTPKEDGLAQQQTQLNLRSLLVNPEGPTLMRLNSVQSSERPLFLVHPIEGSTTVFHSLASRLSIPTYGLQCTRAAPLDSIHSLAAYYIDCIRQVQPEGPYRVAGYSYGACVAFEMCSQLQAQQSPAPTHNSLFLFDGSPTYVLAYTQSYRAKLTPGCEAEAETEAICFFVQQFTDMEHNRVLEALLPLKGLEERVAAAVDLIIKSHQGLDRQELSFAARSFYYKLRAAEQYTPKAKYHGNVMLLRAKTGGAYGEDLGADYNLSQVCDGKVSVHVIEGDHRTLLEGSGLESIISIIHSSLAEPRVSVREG

{"columns": ["structure.string", "assayed.system", "unit.string", "inhibition at 10 µM"],
 "data": [
  ["CCOC(=O)c1n[nH]c2c1C(=O)C(SCc1ccc(F)cc1F)=CC2=O", "recombinant thioesterase TE2 (recombinant FASN-TE) (Homo sapiens, UniProt P49327)", "%", 94.9],
  ["CCOC(=O)c1n[nH]c2c1C(=O)C(SCc1ccc(OC)cc1)=CC2=O", "recombinant thioesterase TE2 (recombinant FASN-TE) (Homo sapiens, UniProt P49327)", "%", 96.5],
  ["CCOC(=O)c1n[nH]c2c1C(=O)C(Sc1ccc(-c3ccccc3)cc1)=CC2=O", "recombinant thioesterase TE2 (recombinant FASN-TE) (Homo sapiens, UniProt P49327)", "%", 97.4],
  ["C=C1C=C(SCC)C(=O)c2c(C(=O)OCC)n[nH]c21", "recombinant thioesterase TE2 (recombinant FASN-TE) (Homo sapiens, UniProt P49327)", "%", 95.7],
  ["CCOC(=O)c1n[nH]c2c1C(=O)C(SCC(=O)OC)=CC2=O", "recombinant thioesterase TE2 (recombinant FASN-TE) (Homo sapiens, UniProt P49327)", "%", 96.8],
  ["CNC(=O)CSC1=CC(=O)c2[nH]ncc2C1=O", "recombinant thioesterase TE2 (recombinant FASN-TE) (Homo sapiens, UniProt P49327)", "%", 100],
  ["C=C1C=C(S)C(=O)c2c(C(=O)OCC)n[nH]c21", "recombinant thioesterase TE2 (recombinant FASN-TE) (Homo sapiens, UniProt P49327)", "%", 79.3],
  ["CCOC(=O)c1n[nH]c2c1C(=O)C(SCC(=O)Nc1ccccc1)=CC2=O", "recombinant thioesterase TE2 (recombinant FASN-TE) (Homo sapiens, UniProt P49327)", "%", 86.8],
  ["CCOC(=O)c1n[nH]c2c1C(=O)C(SC1CCCC1)=CC2=O", "recombinant thioesterase TE2 (recombinant FASN-TE) (Homo sapiens, UniProt P49327)", "%", 86.4]
]}

* * *

target: recombinant thioesterase TE2 (recombinant FASN-TE) (Homo sapiens, UniProt P49327); test: Recombinant thioesterase inhibition assay (TE2); conditions: recombinant thioesterase; approximate; read-out: approx, IC50 TE2
pIC50: −log10 of the molar value.
Entries annotated with measured pIC50
assay.endpoint: pIC50

{"columns": ["structure.string", "result"],
 "data": [
  ["C=C1C=C(S)C(=O)c2c(C(=O)OCC)n[nH]c21", "~5.62"],
  ["C=C1C=C(SCC)C(=O)c2c(C(=O)OCC)n[nH]c21", "~6.25"],
  ["CCOC(=O)c1n[nH]c2c1C(=O)C(SCC(=O)OC)=CC2=O", "~6.39"]
]}

* * *

Entries annotated with measured % inhibition of 14C-acetate incorp. PC3 cells
tested on: intracellular FASN in PC3 cells; test: Inhibition of 14C-acetate incorporation in PC3 cells; format: cell-based; conditions: PC3 cells; two hours drug, then two hour labeling; concentration not given
assay.endpoint: % inhibition of 14C-acetate incorp. PC3 cells (%)

{"columns": ["compound", "assayed.system", "unit.string", "result.number"],
 "data": [
  ["CCCCCCCSC1=CC(=O)c2[nH]nc(C(=O)OCC)c2C1=O [TPI-00419-00-A]", "intracellular FASN in PC3 cells", "%", 67.95],
  ["CCOC(=O)c1n[nH]c2c1C(=O)C(Sc1cccc(OC)c1)=CC2=O [TPI-00412-00-A]", "intracellular FASN in PC3 cells", "%", 9.95],
  ["CCOC(=O)c1n[nH]c2c1C(=O)C(Sc1ccccc1)=CC2=O [TPI-00415-00-A]", "intracellular FASN in PC3 cells", "%", 7.05],
  ["CCOC(=O)c1n[nH]c2c1C(=O)C(SCCC(=O)OC)=CC2=O [TPI-00420-00-A]", "intracellular FASN in PC3 cells", "%", 68.5],
  ["CCOC(=O)c1n[nH]c2c1C(=O)C(SCc1ccc(F)cc1F)=CC2=O [TPI-00407-00-A]", "intracellular FASN in PC3 cells", "%", 37.8],
  ["CCOC(=O)c1n[nH]c2c1C(=O)C(SCCCCO)=CC2=O [TPI-00410-00-A]", "intracellular FASN in PC3 cells", "%", 1.85],
  ["CCOC(=O)c1n[nH]c2c1C(=O)C(SCc1ccc(C(F)(F)F)cc1)=CC2=O [TPI-00408-00-A]", "intracellular FASN in PC3 cells", "%", 89.9],
  ["CCOC(=O)c1n[nH]c2c1C(=O)C(SCCOCCOC)=CC2=O [TPI-00413-00-A]", "intracellular FASN in PC3 cells", "%", 20.2],
  ["CCOC(=O)c1n[nH]c2c1C(=O)C(SCC(=O)NC)=CC2=O [TPI-00409-00-A]", "intracellular FASN in PC3 cells", "%", 0]
]}

* * *

tested on: intracellular FASN in PC3 cells; assay: Inhibition of 14C-acetate incorporation in PC3 cells; format: cell-based; conditions: PC3 cells; two hours drug, then two hour labeling; concentration not given
Entries annotated with measured % inhibition of 14C-acetate incorp. PC3 cells
assay.endpoint: % inhibition of 14C-acetate incorp. PC3 cells (%)

{"columns": ["structure.string", "result.number"],
 "data": [
  ["CCOC(=O)c1n[nH]c2c1C(=O)C(SCc1ccco1)=CC2=O", 92.2],
  ["CCOC(=O)c1n[nH]c2c1C(=O)C(SCC(=O)Nc1ccccc1)=CC2=O", 0],
  ["CCOC(=O)c1n[nH]c2c1C(=O)C(Sc1ccc(-c3ccccc3)cc1)=CC2=O", 0.75],
  ["CCOC(=O)c1n[nH]c2c1C(=O)C(SCc1ccc(OC)cc1)=CC2=O", 89.9],
  ["COc1cc(O)c2onc(-c3ccccc3)c2c1O", 29.1],
  ["CCOC(=O)c1n[nH]c2c1C(=O)C(SCc1cccc(F)c1)=CC2=O", 37.7],
  ["CCOC(=O)c1n[nH]c2c1C(=O)C(SCc1ccc(Cl)cc1)=CC2=O", 96.1],
  ["CCOC(=O)c1n[nH]c2c1C(=O)C(SC1CCCC1)=CC2=O", 92.4],
  ["C=C1C=C(SCC)C(=O)c2c(C(=O)OCC)n[nH]c21", 90.4]
]}

* * *

Entries annotated with measured % inhibition of 14C-acetate incorp. PC3 cells
tested on: intracellular FASN in PC3 cells; assay: Inhibition of 14C-acetate incorporation in PC3 cells; assay type: cell-based; details: PC3 cells; two hours drug, then two hour labeling; concentration not given
assay.endpoint: % inhibition of 14C-acetate incorp. PC3 cells (%)

{"columns": ["structure.string", "unit.string", "result.number"],
 "data": [
  ["O=C(Nc1ccccc1)c1n[nH]c2c1C(=O)C(SCCCCO)=CC2=O", "%", 87.25],
  ["C=C1C=C(S)C(=O)c2c(C(=O)OCC)n[nH]c21", "%", 97],
  ["CNC(=O)CSC1=CC(=O)c2[nH]ncc2C1=O", "%", 70],
  ["O=C(Nc1ccccc1)c1n[nH]c2c1C(=O)C(SCc1ccc(C(F)(F)F)cc1)=CC2=O", "%", 0]
]}

* * *

target: recombinant thioesterase TE2 (recombinant FASN-TE) (Homo sapiens); experiment: Recombinant thioesterase inhibition assay (TE2); format: biochemical; details: 10 μM compound; 30 min pre-incubation at 37° C.; 4-MUH substrate
assay.endpoint: inhibition at 10 µM (%)

{"columns": ["structure.string", "assayed.system", "result.number"],
 "data": [
  ["CCOC(=O)c1n[nH]c2c1C(=O)C(Sc1ccccc1)=CC2=O", "recombinant thioesterase TE2 (recombinant FASN-TE) (Homo sapiens)", 97.5],
  ["CCOC(=O)c1n[nH]c2c1C(=O)C(SCc1ccc(C(F)(F)F)cc1)=CC2=O", "recombinant thioesterase TE2 (recombinant FASN-TE) (Homo sapiens)", 96.2],
  ["CCOC(=O)c1n[nH]c2c1C(=O)C(SCc1cccc(F)c1)=CC2=O", "recombinant thioesterase TE2 (recombinant FASN-TE) (Homo sapiens)", 96],
  ["COc1cc(O)c2onc(-c3ccccc3)c2c1O", "recombinant thioesterase TE2 (recombinant FASN-TE) (Homo sapiens)", 55.9],
  ["O=C(Nc1ccccc1)c1n[nH]c2c1C(=O)C(SCCCCO)=CC2=O", "recombinant thioesterase TE2 (recombinant FASN-TE) (Homo sapiens)", 98],
  ["CCOC(=O)c1n[nH]c2c1C(=O)C(SCc1ccco1)=CC2=O", "recombinant thioesterase TE2 (recombinant FASN-TE) (Homo sapiens)", 95.9],
  ["CCOC(=O)c1n[nH]c2c1C(=O)C(SCc1ccc(Cl)cc1)=CC2=O", "recombinant thioesterase TE2 (recombinant FASN-TE) (Homo sapiens)", 97.8],
  ["CCCCCCCSC1=CC(=O)c2[nH]nc(C(=O)OCC)c2C1=O", "recombinant thioesterase TE2 (recombinant FASN-TE) (Homo sapiens)", 95.8],
  ["CCOC(=O)c1n[nH]c2c1C(=O)C(SCCC(=O)OC)=CC2=O", "recombinant thioesterase TE2 (recombinant FASN-TE) (Homo sapiens)", 95.3]
]}

Values were extracted from patent US10071076B2.
